Source listed as patent EP0986381B1.

- Test system: human malignant melanoma (RPMI-7951)
- assay: Colorimetric MTT cytotoxicity assay, RPMI-7951
- Type: cell-based
- testConditions: RPMI-7951, 72 hours
measurementKind: IC50

Need IC50, item C=C1C(=O)CC2CC3OC3(C)CCC3OC3(C)CC(O)C1C2(C)C (stereo not shown) [JO-4A]
10 to 12.5 µM

* * *

- assay: Colorimetric MTT cytotoxicity assay, HUVEC
- Type: cell-based
- testConditions: human, read-out: IC50 concentration (cytotoxicity)
measurementKind: CC50 at 72 h

Need CC50 at 72 h, item C=C1C(=O)CC2CC3OC3(C)CCC3OC3(C)CC(O)C1C2(C)C (stereo not shown)
25 to 50 µM

* * *

- assay: Colorimetric MTT cytotoxicity assay, normal cervical ectoepithelial cells
- Format: cell-based
- testConditions: human, crec-ec cells; at the IC50 dose for HeLa (between 10 µM and 12.5 µM); read-out: cytotoxic effect
measurementKind: cytotoxicity (%)
Value expressed in %; do not type the unit.

Need cytotoxicity, item C=C1C(=O)CC2CC3OC3(C)CCC3OC3(C)CC(O)C1C2(C)C (stereo not shown)
6

* * *

Reported CC50 at 72 h values are given for each entry in this list.
- assay: Colorimetric MTT cytotoxicity assay, CV-1 cells
- Assay type: cell-based
- testConditions: african green monkey, read-out: concentration giving cytotoxicity of greater than 50%
- Procedure: Normal African green monkey kidney cells (CV-1): CV-1 cells from the Hybriwix™ Probe Systems: Herpes Antiviral Susceptibility Test kit (Diagnostic Hybrids, Inc., Athens, OH) were used for toxicity testing of JO-4A by MTT assay. Colorimetric MTT assay: Cytotoxic effects of drugs were determined in vitro by a colorimetric assay (Mosmann, T., J. Immunol. Methods, 65: 55-63, 1983). […]

{"compound": "C=C1C(=O)CC2CC3OC3(C)CCC3OC3(C)CC(O)C1C2(C)C (centres unmarked)", "CC50 at 72 h": "~25 µM"}

Need CC50 at 72 h, item C=C1C(=O)C[C@H]2C[C@@H]3O[C@@]3(C)CC[C@@H]3O[C@@]3(C)C[C@@H](OC(C)=O)[C@H]1C2(C)C [JO-4, hypoestoxide]
> 50 µM

* * *

- System: HSV-2
- assay: In vitro HSV-2 replication assay, Hybriwix Probe Systems
- Format: cell-based, Herpes simplex virus
- testConditions: Human alphaherpesvirus 2, 48 h; two days, African green monkey kidney cells; read-out: IC50 dose on HSV-1 inhibition (paragraph on HSV-2 replication)
measurementKind: IC50

Need IC50, item C=C1C(=O)C[C@H]2C[C@@H]3O[C@@]3(C)CC[C@@H]3O[C@@]3(C)C[C@@H](OC(C)=O)[C@H]1C2(C)C [JO-4, hypoestoxide]
< 3.12 µM

* * *

- assay: Colorimetric MTT cytotoxicity assay, normal cervical ectoepithelial cells
- Assay type: cell-based
- testConditions: human, crec-ec cells; normal cervical ectoepithelial cells, 72 hours; read-out: IC50 (cytotoxicity)
measurementKind: CC50 at 72 h

Need CC50 at 72 h, item C=C1C(=O)CC2CC3OC3(C)CCC3OC3(C)CC(O)C1C2(C)C (stereo not shown)
> 100 µM
